- Protocol summary: qHTS Assay for Identifying Gametocytocidal Compounds (AID 743244); also: potency is read from the fitted curve at half-maximal effect
- Stated conditions: P. falciparum 3D7 stage III-V gametocytes, alamarBlue, 72 h
Results filed as inconclusive are left out. Calls of active or inactive are those of the source. Calls follow the shape of the dose curve; as a rule, active = well fitted curve in the direction sought with a large enough effect; inconclusive = small, poorly fitted or top-dose-only effect, or another doubt; inactive = no such curve, though single readings can be large or run the other way.
// Potency lookup, one value per entry

Q: Would you kindly share the measured Potency for C=C(NC(=O)C(=C)NC(=O)c1csc(C2=N[C@@H]3c4csc(n4)[C@H]4NC(=O)c5csc(n5)[C@H]([C@](C)(O)[C@@H](C)O)NC(=O)[C@H]5CSC(=N5)C(=CC)NC(=O)C([C@@H](C)O)NC(=O)c5csc(n5)[C@]3(CC2)NC(=O)[C@H](C)NC(=O)C(=C)NC(=O)[C@H](C)NC(=O)C([C@@H](C)CC)NC2C=Cc3c([C@H](C)O)cc(nc3C2O)C(=O)O[C@@H]4C)n1)C(N)=O (stereo partly drawn) ?
Result: 11.2 µM (active)

Q: Would you kindly share the measured Potency for CNC1CCN(C(Cc2cccc(-c3ccncc3)c2)C(=O)c2sc3c(F)ccc(F)c3c2Cl)CC1 (stereo not drawn) ?
Result: 9.35 µM (active)

Q: Would you kindly share the measured Potency for `CO[C@H]1C=CO[C@@]2(C)Oc3c(C)c(O)c4c(O)c(c5c(nc6cc(C)ccn65)c4c3C2=O)NC(=O)/C(C)=C\C=C[C@H](C)[C@H](O)[C@@H](C)[C@@H](O)[C@@H](C)[C@H](OC(C)=O)[C@@H]1C` ?
Result: 12.6 µM (active)
